# tested.system: FXR (Homo sapiens, UniProt Q96RI1)
# Sequence (Q96RI1 whole entry): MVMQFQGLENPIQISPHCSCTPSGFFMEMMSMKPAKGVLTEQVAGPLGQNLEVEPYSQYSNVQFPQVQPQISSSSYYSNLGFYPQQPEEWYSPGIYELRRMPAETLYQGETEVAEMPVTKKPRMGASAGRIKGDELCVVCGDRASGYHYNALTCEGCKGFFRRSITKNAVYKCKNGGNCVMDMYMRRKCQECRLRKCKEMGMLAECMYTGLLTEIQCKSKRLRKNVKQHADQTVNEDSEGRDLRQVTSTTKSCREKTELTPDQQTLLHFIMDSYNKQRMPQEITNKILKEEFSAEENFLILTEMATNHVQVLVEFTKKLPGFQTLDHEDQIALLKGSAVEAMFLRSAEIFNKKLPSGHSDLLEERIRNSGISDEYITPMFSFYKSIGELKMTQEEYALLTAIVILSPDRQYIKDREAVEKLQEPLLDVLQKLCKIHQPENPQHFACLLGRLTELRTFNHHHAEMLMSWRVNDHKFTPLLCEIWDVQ
# Sequence (P19793 whole entry partner): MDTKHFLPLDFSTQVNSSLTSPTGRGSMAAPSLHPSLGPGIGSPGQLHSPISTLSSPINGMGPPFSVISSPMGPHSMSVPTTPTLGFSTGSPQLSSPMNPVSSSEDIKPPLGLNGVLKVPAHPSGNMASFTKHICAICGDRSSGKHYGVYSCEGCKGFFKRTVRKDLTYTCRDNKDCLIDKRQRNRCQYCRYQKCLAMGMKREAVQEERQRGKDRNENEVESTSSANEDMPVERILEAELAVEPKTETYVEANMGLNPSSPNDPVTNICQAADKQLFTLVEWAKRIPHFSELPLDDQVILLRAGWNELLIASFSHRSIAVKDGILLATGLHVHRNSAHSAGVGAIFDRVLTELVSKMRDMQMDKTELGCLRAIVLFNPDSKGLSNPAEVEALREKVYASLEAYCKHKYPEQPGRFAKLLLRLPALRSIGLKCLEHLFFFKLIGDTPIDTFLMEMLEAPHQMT
# test.protocol: In Vitro FXR Assay (TK), luciferase reporter in transfected CV-1 cells
# Assay type: cell-based
# Design: expressed in transfected cells; host or cells: CV-1 cells
# experimental.conditions: CV-1 cells transfected with hFXR, hRXR, TK-ECRE-luc; 18 hrs incubation; luminescence; maximum efficacy <25% of Fexaramine control also classified '+'
Answer each item with its documented EC50.

Endpoint output: EC50 of COc1ccc([C@H]2CC[C@H](CN(C(=O)C3CCCCC3)c3cccc(/C=C/C(=O)OC(C)C)c3)CC2)cc1C . Value?
≤ 1000 nM

What does the record list as EC50 for COC(=O)/C=C/c1cccc(N(CC2CN(c3ccc(N(C)C)cc3)C2)C(=O)C2CCCCC2)c1 ?
≥ 10000 nM

Field request: EC50 | item: COc1ccc([C@H]2CC[C@H](CN(c3cccc(/C=C/C(=O)OC(C)C)c3)C(=O)[C@H]3CC[C@H](O)CC3)CC2)cc1C
≤ 1000 nM

Value lookup for EC50; key = COC(=O)/C=C/c1cccc(N(C[C@H]2CCN(c3ccc(N(C)C)cc3)C2)C(=O)C2CCCCC2)c1
1000 to 10000 nM

Reported EC50, molecule CN(C)c1ccc(N2CCC(CN(C(=O)C3CCCCC3)c3cccc(/C=C/C(=O)O)c3)CC2)cc1 : ____
≥ 10000 nM

Param item = COC(=O)/C=C/c1cccc(N(C[C@H]2CC[C@H](c3ccc(OC)c(C)c3)CC2)C(=O)C2CCCCC2)c1 ; retrieve measured EC50.
≤ 1000 nM

Please give the measured EC50 for this molecule: COC(=O)/C=C/c1cccc(N(C[C@H]2CC[C@H](c3ccc(OC)c(C)c3)CC2)C(=O)CC(C)(C)C)c1
≤ 1000 nM

Find the recorded EC50 belonging to COc1ccc([C@H]2CC[C@H](CN(C(=O)CC(C)(C)C)c3cccc(/C=C/C(=O)OC(C)C)c3)CC2)cc1C and report it.
≤ 1000 nM

EC50 for COC(=O)/C=C/c1cccc(N(CC2CCC(c3ccc(Cl)cc3)CC2)C(=O)C2CCCCC2)c1 (stereo not shown) ?
≤ 1000 nM

Look at this molecule and give its reported EC50. COc1ccc([C@H]2CC[C@H](CN(C(=O)C3CCCCC3)c3cccc(/C=C/C(=O)O)c3)CC2)cc1C
1000 to 10000 nM

Data request, read-out EC50, for COC(=O)/C=C/c1cccc(N(C[C@H]2CC[C@H](c3ccc(OC)c(C)c3)CC2)C(=O)[C@H]2CC[C@H](O)CC2)c1
≤ 1000 nM

Fill blank: measured EC50 of the molecule COC(=O)/C=C/c1cccc(N(CC2CCN(c3ccc(N(C)C)cc3)CC2)C(=O)C2CCCCC2)c1 is ____.
≤ 1000 nM

State the recorded EC50 for this entry: COC(=O)/C=C/c1cccc(N(C[C@H]2CC[C@@H](c3ccc(OC)c(C)c3)CC2)C(=O)C2CCCCC2)c1
≥ 10000 nM

Query: EC50; subject: COC(=O)/C=C/c1cccc(N(CC2CCN(c3ccc(C)cc3)CC2)C(=O)C2CCCCC2)c1
≤ 1000 nM

May I ask what EC50 has been recorded for COC(=O)/C=C/c1cccc(N(C[C@@H]2CCN(c3ccc(N(C)C)cc3)C2)C(=O)C2CCCCC2)c1 ?
≥ 10000 nM

Given COC(=O)/C=C/c1cccc(N(Cc2ccc(-c3ccc(N(C)C)cc3)nc2)C(=O)C2CCCCC2)c1 , state its recorded EC50.
1000 to 10000 nM
